Can you tell me viability at 48 h, 25 µM for the items I'm about to list?
assay: in vitro; settings: human, hek293t cells
Use % as the unit, but write only the number.

Ask: Suppose we examine the compound C=CC(=O)N(CC)Cc1cccc2c1OCO2 ; what viability at 48 h, 25 µM value has been reported?
Result: 47.8

Ask: Any idea what its viability at 48 h, 25 µM is? The compound is COc1cc(OC)c(C(=O)CCl)c(OC)c1
Result: 80.7

Ask: Returns the measured viability at 48 h, 25 µM for the input compound. Input: CC(=O)c1ccc(NC(=O)CCl)cc1 [4-G07, N-(4-acetylphenyl)-2-chloroacetamide]
Result: 0.0514

Ask: Look up viability at 48 h, 25 µM for this compound: C=CC(=O)NCCc1nnc(-c2ccccc2)o1
Result: 70.8

Ask: Using the record for C=CC(=O)N1CCC([C@@H](C)O)CC1 , report its viability at 48 h, 25 µM.
Result: 104

Ask: Look at this compound and give its reported viability at 48 h, 25 µM. C=CC(=O)NCCc1nc(C)no1
Result: 74.2

Ask: What value of viability at 48 h, 25 µM has been reported for the following compound? NC(=O)c1csc(C(=O)CCl)c1
Result: 66.2

Ask: Consider the compound CC(Cl)C(=O)N1CCn2c(Cc3c(F)cccc3F)nnc2C1 (stereo not drawn) and give its measured viability at 48 h, 25 µM.
Result: 100

Ask: Form field: reported viability at 48 h, 25 µM of C=CC(=O)N(C)CC(=O)Nc1ccc(N2C[C@@H](C)O[C@@H](C)C2)cc1
Result: 94.9

Ask: Dear colleague, I am looking for the recorded viability at 48 h, 25 µM of the following compound: Cc1cc(C(=O)CCl)c(C)n1CCc1cccs1
Result: 0.304

Ask: Consider the compound O=C(CCl)N1CCCC1c1ccccc1 (stereo not drawn) and give its measured viability at 48 h, 25 µM.
Result: 0.923

Ask: Which viability at 48 h, 25 µM reading was recorded for the compound CC(Cl)C(=O)NC1(c2nnc[nH]2)CCC1 (stereo not drawn) ?
Result: 87.6

Ask: Give the measured viability at 48 h, 25 µM of CC(C)CN(C(=O)CCl)C1CC1 .
Result: 1.19

Ask: Value lookup for viability at 48 h, 25 µM; key = CN1C(=CC=C(C#N)C(=O)NCC2CCCO2)C(C)(C)c2ccccc21 (stereo not drawn)
Result: 77.7

Ask: Which viability at 48 h, 25 µM value belongs to O=C(CCl)Nc1ccccc1SCc1ccccc1 ?
Result: 0.437

Ask: Reported viability at 48 h, 25 µM, compound O=C(CCl)C1CC1(Cl)Cl (stereo not drawn) : ____
Result: 1.74

Ask: What does the record list as viability at 48 h, 25 µM for C=CC(=O)N(C)CC(=O)N1CCCc2ccccc21 ?
Result: 65.7

Ask: Entry COc1ccc2nnc(CNC(=O)C(C)Cl)n2n1 (stereo not drawn) has what viability at 48 h, 25 µM?
Result: 90.2

Ask: Quick check: viability at 48 h, 25 µM of COc1ccc(C=C(C#N)C(N)=O)c(Cl)c1OC ?
Result: 105

Ask: Look up viability at 48 h, 25 µM for this compound: CC(Cl)C(=O)NCc1cccs1 (stereo not drawn)
Result: 68.4

Ask: Can you share its viability at 48 h, 25 µM? I mean this compound: COc1ccccc1NC(=O)C(C#N)=Cc1ccc(F)cc1
Result: 81

Ask: // lookup viability at 48 h, 25 µM for COc1ccc(NC(=O)C(C#N)=Cc2c(C)n[nH]c2C)cc1
Result: 84.7

Ask: What value of measured viability at 48 h, 25 µM is listed for O=C(CCl)NCc1ccc(NC(=O)C2CC2)cc1 ?
Result: 2.09

Ask: # get_value(readout='viability at 48 h, 25 µM', item= C=CC(=O)NC(Cc1ccccc1)c1ncco1 (stereo not drawn) )
Result: 118

Ask: What does the record list as viability at 48 h, 25 µM for CCC1CN(CCn2cccn2)CCN1C(=O)C(C)Cl (stereo not drawn) ?
Result: 98.7

Ask: So what does the record say about viability at 48 h, 25 µM for COc1ccc(-n2c(C)c(C)c(C#N)c2NC(=O)CCl)cc1 ?
Result: 0.583

Ask: Fill in the blank: the reported viability at 48 h, 25 µM of C=CC(=O)NCc1nc2ccccc2c(=O)n1C is ____.
Result: 88.6

Ask: Which viability at 48 h, 25 µM reading was recorded for the compound CC1CCCC(NC(=O)C(C#N)=Cc2ccccc2)C1C (stereo not drawn) ?
Result: 27.3

Ask: Which viability at 48 h, 25 µM reading was recorded for the compound Cc1ccc(NC(=O)C(C#N)=Cc2ccc(OC(F)F)cc2)c(C)c1 ?
Result: 90.4

Ask: Dear colleague, I am looking for the recorded viability at 48 h, 25 µM of the following compound: CC(C)C(NC(=O)CCl)c1ccc2c(c1)OCCCO2 (stereo not drawn)
Result: 28.5

Ask: So what's the measured viability at 48 h, 25 µM for this one? CC(Cl)C(=O)NCCCN1CCc2ccccc2C1 (stereo not drawn)
Result: 88.4

Ask: Please report the recorded viability at 48 h, 25 µM for N#CC(=Cc1ccc(Cl)c(Cl)c1)C(=O)NCc1ccccc1 .
Result: 105

Ask: May I ask what viability at 48 h, 25 µM has been recorded for CCC(NC(=O)CCl)c1nc(C)n[nH]1 (stereo not drawn) ?
Result: 96.8

Ask: I am curious: what viability at 48 h, 25 µM value has been reported for CCc1cccc(NC(=O)CCl)c1 [4-F04, 2-chloro-N-(3-ethylphenyl)acetamide] ?
Result: 0.569

Ask: May I ask what viability at 48 h, 25 µM has been recorded for C=CC(=O)NCCc1nc(C)cs1 ?
Result: 70.3

Ask: Could you share which viability at 48 h, 25 µM value was measured for C=CCNC(=O)C(C#N)=Cc1ccc(C)c(C)c1 ?
Result: 110

Ask: Field request: viability at 48 h, 25 µM | item: C=CC(=O)N1CCC(C(=O)N2CCCC(NC(=O)C(C)(C)C)C2)CC1 (stereo not drawn)
Result: 75.6

Ask: Record request: viability at 48 h, 25 µM value, item Cc1cccc(C=C(C#N)C(=O)Nc2ccc(C(=O)O)cc2)c1
Result: 91.6

Ask: # input compound: C=CC(=O)NCCNC(=O)c1cc2ccccc2[nH]1 ; wanted: its viability at 48 h, 25 µM
Result: 63.1

Ask: Data request, read-out viability at 48 h, 25 µM, for O=C(CCl)NC1CN(S(=O)(=O)c2ccc3c(c2)OCCO3)C1
Result: 2.6

Ask: Given the compound O=C(CCl)N1N=C(c2cccs2)CC1c1cccs1 (stereo not drawn) , what is its reported viability at 48 h, 25 µM?
Result: 0.013

Ask: Value lookup for viability at 48 h, 25 µM; key = C=CC(=O)N1CCC(C(=O)NCc2ccc(C(N)=O)nc2)CC1
Result: 59.8

Ask: Name the reported viability at 48 h, 25 µM value associated with the compound CSc1ccc(C=C(C#N)C(=O)Nc2ccc3c(c2)OCCO3)cc1
Result: 114

Ask: Returns the measured viability at 48 h, 25 µM for the input compound. Input: CC(Cl)C(=O)N1C2CCC1CC(c1ccnn1C)C2 (stereo not drawn)
Result: 88.6

Ask: Would you kindly share the measured viability at 48 h, 25 µM for CC(C)Oc1ccc(C=C(C#N)C(=O)NC2CCCC2)cc1 ?
Result: 57.5
